Entry source: PubChem BioAssay

experiment: sensitizers of A549 cells to miR-34 induction, primary screen, imaging, A549 dox-inducible miR-34, nuclei and caspase counts (AID 1347080); conditions: A549 miR-34 inducible, Hoechst nuclei count, 48 h; measured here: total cells with miR-34 induction; stronger effect = lower value; also: test concentration not given here
Listing of entries alongside the reported cell count.
measuredQuantity: cell count

molecule | measuredQuantity | value
CC(N)[C@H](O)c1ccc(O)c(O)c1 (stereo partly drawn) | cell count | 10200
NCCc1ccc(O)cc1 | cell count | 10000
CCCN1CCC[C@H](c2cccc(O)c2)C1 | cell count | 9710

* * *

test: sensitizers of A549 cells to miR-34 induction, primary screen, imaging, A549 dox-inducible miR-34, nuclei and caspase counts (AID 1347080); conditions: A549 miR-34 inducible, Hoechst nuclei count, 48 h; measured here: total cells with miR-34 induction; stronger effect = lower value; also: test concentration not given here
Note that class boundaries on cell count are 0 (below 5000), 1 (5000 to below 8000), 2 (8000 or more)

molecule | answerLabel
CC1(O)C[C@@]23C[C@@H](O)[C@@]4(O)[C@@H](C[C@H](O)C4(C)C)[C@](C)(O)[C@@H]2CCC1[C@H]3O (some centres not stated) | 1
Cc1ccc2c(c1)C1(CCN(CCc3nc(-c4ccccc4)oc3C)CC1)OC(=O)N2 | 1
C#C[C@]1(O)CC[C@H]2[C@@H]3CCC4=CC(=O)CCC4=C3C=C[C@@]21CC | 2
CC(C)(C)c1cc(C=C(C#N)C#N)cc(Br)c1O | 1
CC(C)N(CCNC(=O)CN1CCCC1=O)C(C)C | 2
CCCCOC(=O)c1ccccc1C(=O)OCCCC | 2
CN(C(=O)Cc1ccc(Cl)c(Cl)c1)[C@H](CN1CCCC1)c1ccccc1 | 1
Cc1ccc2c(c1)Cc1c(C(=O)NC3CCCCC3)nn(-c3ccc(Cl)cc3Cl)c1-2 | 2
CCCCC/C=C\C/C=C\C/C=C\C/C=C\CCCC(=O)NCC(O)CC(=O)O (configuration not stated) | 1
CCCCC/C=C\C/C=C\C/C=C\C/C=C\CCCC(=O)Nc1ccc2c(C)cc(=O)oc2c1 | 1
CNc1ccc2oc(C[C@H]3O[C@@]4(CC[C@H]3C)O[C@H]([C@H](C)C(=O)c3ccc[nH]3)[C@H](C)C[C@H]4C)nc2c1C(=O)O | 0
COc1cc2c(cc1O)[C@@H]1Cc3ccc(OC)c(O)c3CN1CC2 | 0
CCCCCCCC/C=C\CCCCCCCC(=O)Nc1ccccc1 | 1
C[C@H]1CCC2(NC1)O[C@H]1C[C@H]3[C@@H]4CC[C@H]5C[C@@H](O[C@@H]6O[C@H](CO)[C@H](O[C@@H]7O[C@H](CO)[C@@H](O)[C@H](O[C@@H]8OC[C@@H](O)[C@H](O)[C@H]8O)[C@H]7O[C@@H]7O[C@H](CO)[C@@H](O)[C@H](O)[C@H]7O)[C@H](O)[C@H]6O)CC[C@]5(C)[C@H]4CC[C@]3(C)[C@H]1[C@@H]2C (some centres not stated) | 0
CN1C[C@H](C(=O)N[C@]2(C)C[C@@]3(O)C4CCCN4C(=O)[C@H](Cc4ccccc4)N3C2=O)C=C2c3cccc4[nH]cc(c34)C[C@H]21 (some centres not stated) | 2
COc1ccc(S(=O)(=O)N(CCO)c2ccccc2CN(C)CC=Cc2ccc(Cl)cc2)cc1 | 1
CCCCC/C=C\C/C=C\C/C=C\C/C=C\CCCC(=O)NC | 1
CCC(C)[C@H]1O[C@]2(C=C[C@@H]1C)C[C@@H]1C[C@@H](C/C=C(\C)[C@@H](OC3C[C@H](OC)C(O[C@H]4C[C@H](OC)[C@@H](O)[C@H](C)O4)[C@H](C)O3)[C@@H](C)/C=C/C=C3\CO[C@@H]4[C@H](O)C(C)=C[C@@H](C(=O)O1)[C@]34O)O2 (some centres not stated) | 0
C[CH2][Hg][S]c1ccccc1C(=O)O | 0
